Hey, just so you know, these numbers are from patent US20230024096A1.

- TESTED SYSTEM: SMARCA2 (Homo sapiens)
- Construct: endogenous in cells; host or cells: HT1080 (CRISPR HiBiT knock-in clone, generated in house)
- Sequence (P51531 whole entry): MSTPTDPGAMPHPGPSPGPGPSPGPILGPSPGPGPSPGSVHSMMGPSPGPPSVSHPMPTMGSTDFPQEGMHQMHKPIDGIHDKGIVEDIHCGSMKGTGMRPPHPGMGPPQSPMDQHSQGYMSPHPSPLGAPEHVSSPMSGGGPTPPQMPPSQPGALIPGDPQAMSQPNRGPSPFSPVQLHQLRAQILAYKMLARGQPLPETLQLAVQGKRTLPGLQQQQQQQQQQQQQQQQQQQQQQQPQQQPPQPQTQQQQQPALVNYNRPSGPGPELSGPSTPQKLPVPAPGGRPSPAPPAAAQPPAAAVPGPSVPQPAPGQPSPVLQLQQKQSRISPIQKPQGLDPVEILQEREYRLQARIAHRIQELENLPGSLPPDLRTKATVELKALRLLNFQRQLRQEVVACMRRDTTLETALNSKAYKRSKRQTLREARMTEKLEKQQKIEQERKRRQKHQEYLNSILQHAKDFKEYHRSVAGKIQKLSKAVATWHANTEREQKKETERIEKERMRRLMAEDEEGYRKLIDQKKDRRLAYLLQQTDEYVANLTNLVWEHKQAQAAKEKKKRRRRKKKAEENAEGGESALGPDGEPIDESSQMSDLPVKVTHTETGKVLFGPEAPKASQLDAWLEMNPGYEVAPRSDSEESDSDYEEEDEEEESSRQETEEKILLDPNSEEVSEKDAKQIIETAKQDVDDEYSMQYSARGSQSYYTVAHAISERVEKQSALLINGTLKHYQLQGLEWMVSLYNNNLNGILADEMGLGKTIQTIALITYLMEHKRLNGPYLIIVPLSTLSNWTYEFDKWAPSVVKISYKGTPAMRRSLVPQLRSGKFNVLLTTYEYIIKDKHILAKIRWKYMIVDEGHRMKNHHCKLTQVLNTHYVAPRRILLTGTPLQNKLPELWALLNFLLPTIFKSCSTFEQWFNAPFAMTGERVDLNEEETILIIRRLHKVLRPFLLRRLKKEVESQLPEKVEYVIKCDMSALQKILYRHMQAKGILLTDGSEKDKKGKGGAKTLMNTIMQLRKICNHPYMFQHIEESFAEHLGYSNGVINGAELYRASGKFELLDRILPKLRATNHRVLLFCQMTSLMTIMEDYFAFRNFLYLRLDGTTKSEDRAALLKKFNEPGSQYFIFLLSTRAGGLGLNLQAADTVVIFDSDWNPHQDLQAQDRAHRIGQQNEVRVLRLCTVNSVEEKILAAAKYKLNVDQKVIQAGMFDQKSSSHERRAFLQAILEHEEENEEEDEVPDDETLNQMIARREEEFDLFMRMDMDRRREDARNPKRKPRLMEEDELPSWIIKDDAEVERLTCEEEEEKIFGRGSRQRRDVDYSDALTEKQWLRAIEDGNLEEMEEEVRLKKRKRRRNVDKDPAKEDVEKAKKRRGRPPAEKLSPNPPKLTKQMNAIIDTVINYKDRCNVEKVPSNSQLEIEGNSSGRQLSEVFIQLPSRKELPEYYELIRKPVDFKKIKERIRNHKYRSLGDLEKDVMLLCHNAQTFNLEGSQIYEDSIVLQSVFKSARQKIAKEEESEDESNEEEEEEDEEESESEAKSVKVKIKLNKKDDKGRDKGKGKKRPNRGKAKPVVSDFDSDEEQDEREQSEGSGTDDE
- METHOD NOTES: SMARCA2 HiBiT degradation assay (cellular)
- Format: cell-based
- STUDY CONDITIONS: 6 h incubation; HiBiT-tagged SMARCA2, luminescence read-out; table head names A549; read-out: HiBit A549 SMARCA2 IP (nM) 6 h
Measured DC50 determines class: band A: < 30 nM; band B: ≥ 30 nM and < 100 nM; band C: ≥ 100 nM

COMPOUND | TESTED SYSTEM | CLASSIFICATION
Nc1nnc(-c2ccccc2O)cc1N1CC2CCC(C1)N2c1cccc(CN2CCN(C(=O)CN3CCC(c4ccc(OC5CCC(=O)NC5=O)cc4)CC3)CC2)c1 (racemic) [Example 148] | SMARCA2 (Homo sapiens) | band A
Cc1c(C(=O)N2CCN(C(=O)CCC3CCN(c4ccc5c(c4)C(=O)N(C4CCC(=O)NC4=O)C5=O)CC3)CC2)cccc1N1C2CCC1CN(c1cc(-c3ccccc3O)nnc1N)C2 (racemic) [Example 117] | SMARCA2 (Homo sapiens) | band C
Nc1nnc(-c2ccccc2O)cc1N1CCC(C(=O)N2CCC(C(=O)N3CCN(Cc4ccc5c(c4)C(=O)N(C4CCC(=O)NC4=O)C5=O)CC3)CC2)(c2ccccc2)CC1 (stereo not shown) [Example 174] | SMARCA2 (Homo sapiens) | band C
Nc1nnc(-c2ccccc2O)cc1N1CC2CCC(C1)N2c1cccc(OCCN2CCN(C(=O)CC3CCN(c4ccc5c(c4)C(=O)N(C4CCC(=O)NC4=O)C5=O)CC3)CC2)c1 (racemic) [Example 33] | SMARCA2 (Homo sapiens) | band A
Nc1nnc(-c2ccccc2O)cc1N1CCC(C(=O)N2CCC(C(=O)N3CCN(c4ccc5c(c4)C(=O)N(C4CCC(=O)NC4=O)C5=O)CC3)CC2)(c2ccccc2)CC1 (stereo not shown) [Example 178] | SMARCA2 (Homo sapiens) | band C
Nc1nnc(-c2ccccc2O)cc1N1CC2CCC(C1)N2c1cc(F)cc(CN2CCN(C(=O)C3CCN(c4ccc5c(c4)C(=O)N(C4CCC(=O)NC4=O)C5=O)CC3)CC2)c1 (racemic) [Example 193] | SMARCA2 (Homo sapiens) | band B
CC(Oc1cccc2c1C(=O)N(C1CCC(=O)NC1=O)C2=O)c1cn(CCCCCCOCCN2CCN(c3ccc(N4CCC[C@H](Oc5cc(-c6ccccc6O)nnc5N)C4)cc3)CC2)nn1 (mixture of isomers) [Example 202] | SMARCA2 (Homo sapiens) | band C
Nc1nnc(-c2ccccc2O)cc1N1CC(Oc2cccc(CN3CCN(C(=O)CCC4CCN(c5ccc6c(c5)C(=O)N(C5CCC(=O)NC5=O)C6=O)CC4)CC3)c2)C1 (racemic) [Example 154] | SMARCA2 (Homo sapiens) | band A

Now for a further compound.
Task: For this compound, which bin applies? Nc1nnc(-c2ccccc2O)cc1N1CC2CCC(C1)N2c1cccc(OCCN2CCN(C(=O)CCCCCNc3cccc4c3C(=O)N(C3CCC(=O)NC3=O)C4=O)CC2)c1 (racemic) [Example 12]
Result: band B

* * *

- TESTED SYSTEM: SMARCA2 (Homo sapiens)
- Construct: endogenous in cells; host or cells: HT1080 (CRISPR HiBiT knock-in clone, generated in house)
- METHOD NOTES: SMARCA2 HiBiT degradation assay (cellular)
- Type: cell-based
- STUDY CONDITIONS: 6 h incubation; HiBiT-tagged SMARCA2, luminescence read-out; table head names A549; read-out: HiBit A549 SMARCA2 IP (nM) 6 h
Mark 1 for DC50 under 100 nM, 0 if at or over.

MOLECULE | CLASSIFICATION
Nc1nnc(-c2ccccc2O)cc1N1CC(Oc2cccc(C(=O)N3CCN(C(=O)CCCCCCNc4cccc5c4C(=O)N(C4CCC(=O)NC4=O)C5=O)CC3)c2)C1 (stereo not drawn) | 0
Nc1nnc(-c2ccccc2O)cc1N1CCC2(CC1)CN(C(=O)CCC1CCN(c3cccc4c3C(=O)N(C3CCC(=O)NC3=O)C4=O)CC1)CCO2 (stereo not drawn) | 0
Nc1nnc(-c2ccccc2O)cc1N1CCC(C(=O)N2CC3(CCN(CCOC4CCN(c5ccc6c(c5)C(=O)N(C5CCC(=O)NC5=O)C6=O)CC4)C3)C2)(c2ccccc2)CC1 (stereo not drawn) | 1
Nc1nnc(-c2ccccc2O)cc1OC1CCCN(c2ccc(N3CCN(C(=O)CCCCCCCCn4cc(CNc5cccc6c5C(=O)N(C5CCC(=O)NC5=O)C6=O)nn4)CC3)cc2)C1 (stereo not drawn) | 1
Nc1nnc(-c2ccccc2O)cc1N1CCC(CNC(=O)COc2ccc3c(c2)C(=O)N(C2CCC(=O)NC2=O)C3=O)(c2ccccc2)CC1 (stereo not drawn) | 0

Task: Could you please tell me whether DC50 recorded for Nc1nnc(-c2ccccc2O)cc1N1CCC(CNC(=O)COc2cccc3c2C(=O)N(C2CCC(=O)NC2=O)C3=O)(c2ccccc2)CC1 (stereo not drawn) is less than 100 nM?
Result: 0
